A collection of sequences and their measured apparent KD of MS2 coat protein
Tested on: MS2 coat protein
METHOD: apparent KD of MS2 coat protein, switch OFF state (with FMN for OFF switches, without FMN for ON switches); designed switch direction (-1 OFF switch, 1 ON switch): 1; higher = weaker reporter binding
TEST_SETTINGS: FMN input: 0 or 200 uM; Eterna round: R93 (includes R88 designs)
State just the number; it will be interpreted in nM.

>>> readout_number("GGGAGACAUGAGGAUCACCCAUGUGAGAAGAGGCGAGGAUAUCGAAAGAAAGAAGAGAAACGAGAAGGCGCGAGGU [salish99-SS1-055]")
72.3
>>> readout_number("AAAAAAAAAAGGCAGGAUAUUCAAAAAAAAACAUGAGGAUCACCCAUGUAAAAAAAAAAAAAAUGGAAGAAGGGCCAAAAAAAAAA [Fiskers Same State 2 D1]")
28

Need apparent KD of MS2 coat protein, item UUUAAUUAUACGAAGGAUAUCGGUAAUUAGACAUGAGGAUCACCCAUGUUAUAUGGUUAAAUAUUCGAGAAGGUCGAGGGUGAAA [JR_SS002_Sub506]
32.1
